The entries below are paired with their reported plant injury at 280.212 g/ha.
Tested on: rape
Experiment: Preemergent control of plant species
Type: in vivo, Brassica napus
Settings: Brassica napus, pre-emergence, 336 h; 0.25 lb/acre; read-out: percent preemergent control
Give the value, in units of %, as a plain number.

- SMILES CODE: "CC(=O)N(c1c(Cl)cccc1Cl)S(=O)(=O)c1nc2nc(C)cc(C)n2n1"
  SYSTEM NAME: "rape"
  ENDPOINT UNIT: "%"
  REPORTED VALUE: 100
- SMILES CODE: "Cc1ccnc2nc(S(=O)(=O)Nc3c(F)cccc3F)nn12"
  SYSTEM NAME: "rape"
  ENDPOINT UNIT: "%"
  REPORTED VALUE: 100
- SMILES CODE: "CCOCCOC(=O)c1cccc(C)c1NS(=O)(=O)c1nc2nc(C)cc(C)n2n1"
  SYSTEM NAME: "rape"
  ENDPOINT UNIT: "%"
  REPORTED VALUE: 100

The measured plant injury at 280.212 g/ha associated with `COC(=O)c1cccc(F)c1NS(=O)(=O)c1nc2nc(C)cc(C)n2n1` reads 98

The measured plant injury at 280.212 g/ha associated with `Cc1ccn2nc(S(=O)(=O)N(C(=O)C(C)C)c3c(F)cccc3F)nc2n1` reads 100

The measured plant injury at 280.212 g/ha associated with `CCCCCCCCCC(=O)N(c1c(F)cccc1F)S(=O)(=O)c1nc2nc(C)ccn2n1` reads 100

The measured plant injury at 280.212 g/ha associated with `Cc1ccn2nc(S(=O)(=O)N(C(=O)C3CC3)c3c(F)cccc3F)nc2n1` reads 100

The measured plant injury at 280.212 g/ha associated with `CCOC(=O)N(c1c(Cl)cccc1Cl)S(=O)(=O)c1nc2nc(C)ccn2n1` reads 100

The measured plant injury at 280.212 g/ha associated with `C=C(C)C(=O)N(c1c(F)cccc1F)S(=O)(=O)c1nc2nc(C)ccn2n1` reads 100

The measured plant injury at 280.212 g/ha associated with `Cc1nc2nc(S(=O)(=O)Nc3ccccc3C(F)(F)F)nn2c(C)c1C` reads 85

The measured plant injury at 280.212 g/ha associated with `Cc1cc(C)n2nc(S(=O)(=O)Nc3c(C)ccc(Cl)c3C)nc2n1` reads 20

The measured plant injury at 280.212 g/ha associated with `Cc1cc(C)n2nc(S(=O)(=O)Nc3ccccc3[N+](=O)[O-])nc2n1` reads 95

* * *

The entries below are paired with their reported pest or weed control at 280.212 g/ha.
System: barnyardgrass
Assay: Preemergent control of plant species
Type: in vivo, Echinochloa crusgalli
Conditions: Echinochloa crus-galli, pre-emergence, 336 h; 0.25 lb/acre; read-out: percent preemergent control
Experimental: The seeds of various species of plants were planted in beds of good agricultural soil in a greenhouse. A number of compositions of the present invention, generally in the nature of an aqueous emulsion, were applied at rates listed in the table so as to deposit a predetermined amount of active ingredients uniformly throughout the surface of the bed. Another seed bed was treated only with water to serve as a control. […]
Give the value, in units of %, as a plain number.

- SMILES CODE: "Cc1cc(C)n2nc(S(=O)(=O)Nc3c(Cl)cccc3Br)nc2n1"
  ENDPOINT UNIT: "%"
  REPORTED VALUE: 97

The measured pest or weed control at 280.212 g/ha associated with `Cc1ccn2nc(S(=O)(=O)N(C(=O)CC(C)C)c3c(F)cccc3F)nc2n1` reads 100

The measured pest or weed control at 280.212 g/ha associated with `CC(=O)c1cccc(C)c1NS(=O)(=O)c1nc2nc(C)ccn2n1` reads 80

The measured pest or weed control at 280.212 g/ha associated with `COc1cccc(F)c1NS(=O)(=O)c1nc2nc(C)ccn2n1` reads 100

The measured pest or weed control at 280.212 g/ha associated with `Cc1ccn2nc(S(=O)(=O)N(C(=O)CCCl)c3c(F)cccc3F)nc2n1` reads 70

* * *

Tested on: nitrification of ammonium nitrogen
Assay: Suppression of nitrification of ammonium nitrogen in soil
Conditions: 10 ppm, 27° C.
QUANTITY: % NH4-N Remaining After 2 Weeks Incubation (%)
Give the value, in units of %, as a plain number.

Here are 5 molecules together with their reported answers.
- MOLECULE: "COC(=O)c1ccccc1NS(=O)(=O)c1nc2nc(C)c3c(n2n1)CCC3 [Compound 109]"
  SYSTEM NAME: "nitrification of ammonium nitrogen"
  REPORTED VALUE: 92
- MOLECULE: "COc1ccccc1NS(=O)(=O)c1nc2nc(C)cc(C)n2n1 [Compound 4]"
  SYSTEM NAME: "nitrification of ammonium nitrogen"
  REPORTED VALUE: 71
- MOLECULE: "Cc1cc(C)n2nc(S(=O)(=O)Nc3ccc(Cl)cc3Br)nc2n1 [Compound 40]"
  SYSTEM NAME: "nitrification of ammonium nitrogen"
  REPORTED VALUE: 66
- MOLECULE: "COc1cc(C)n2nc(S(=O)(=O)Nc3c(Cl)cccc3Cl)nc2n1 [Compound 178]"
  SYSTEM NAME: "nitrification of ammonium nitrogen"
  REPORTED VALUE: 91
- MOLECULE: "Cc1ccc(NS(=O)(=O)c2nc3nc(C)cc(C)n3n2)c(Cl)c1 [Compound 48]"
  SYSTEM NAME: "nitrification of ammonium nitrogen"
  REPORTED VALUE: 93

The measured % NH4-N Remaining After 2 Weeks Incubation associated with Cc1cc(C)n2nc(S(=O)(=O)Nc3ncc(Cl)cc3Cl)nc2n1 [Compound 251] reads 29

The measured % NH4-N Remaining After 2 Weeks Incubation associated with Cc1cc(C)n2nc(S(=O)(=O)Nc3c(Cl)ccc(C)c3Cl)nc2n1 [Compound 46] reads 94

The measured % NH4-N Remaining After 2 Weeks Incubation associated with Cc1cc(C)n2nc(S(=O)(=O)Nc3ccccc3C(N)=O)nc2n1 [Compound 37] reads 44

The measured % NH4-N Remaining After 2 Weeks Incubation associated with Cc1cc(C)n2nc(S(=O)(=O)Nc3c(C)cccc3[N+](=O)[O-])nc2n1 [Compound 49] reads 99

The measured % NH4-N Remaining After 2 Weeks Incubation associated with Cc1cc(C)n2nc(S(=O)(=O)Nc3cc(Cl)cc(Cl)c3)nc2n1 [Compound 24] reads 83

The measured % NH4-N Remaining After 2 Weeks Incubation associated with Cc1cc(C)n2nc(S(=O)(=O)Nc3ccc(F)cc3F)nc2n1 [Compound 29] reads 51

* * *

Tested on: wild oats
Test: Postemergent control of plant species
Format: in vivo, Avena fatua
Settings: Avena fatua, post-emergence, 336 h, read-out: percent postemergent control
The entries below are paired with their reported pest or weed control at 500 ppm.
Give the value, in units of %, as a plain number.

- SMILES CODE: "Cc1cc(C)n2nc(S(=O)(=O)Nc3ccc(F)cc3Cl)nc2n1"
  QUANTITY: "pest or weed control at 500 ppm"
  REPORTED VALUE: 0
- SMILES CODE: "Cc1cc(C)n2nc(S(=O)(=O)Nc3ccccc3[N+](=O)[O-])nc2n1"
  QUANTITY: "pest or weed control at 500 ppm"
  REPORTED VALUE: 0

The measured pest or weed control at 500 ppm associated with `COC(=O)c1ccccc1NS(=O)(=O)c1nc2nc(C)cc(C)n2n1` reads 0

* * *

Tested on: rape
Experiment: Preemergent control of plant species
Format: in vivo, Brassica napus
Conditions: Brassica napus, pre-emergence, 336 h; 0.25 lb/acre; read-out: percent preemergent control
The entries below are paired with their reported plant injury at 280.212 g/ha.
Units required after the number.

- SMILES CODE: "Cc1cc(C)n2nc(S(=O)(=O)Nc3ccccc3C(N)=O)nc2n1"
  SYSTEM NAME: "rape"
  plant injury at 280.212 g/ha: "95%"

The measured plant injury at 280.212 g/ha associated with `COc1cccc(C(F)(F)F)c1NS(=O)(=O)c1nc2nc(C)cc(C)n2n1` reads 100%

The measured plant injury at 280.212 g/ha associated with `CC(=O)c1cccc(C)c1NS(=O)(=O)c1nc2nc(C)ccn2n1` reads 100%

The measured plant injury at 280.212 g/ha associated with `COC(=O)c1cccc(F)c1NS(=O)(=O)c1nc2nc(OC)c(C)cn2n1` reads 100%

The measured plant injury at 280.212 g/ha associated with `COC(=O)c1cccc(C)c1NS(=O)(=O)c1nc2nccc(C)n2n1` reads 100%

The measured plant injury at 280.212 g/ha associated with `CC(C)=NOC(=O)c1cccc(C)c1NS(=O)(=O)c1nc2nc(C)cc(C)n2n1` reads 100%

The measured plant injury at 280.212 g/ha associated with `CCCC(=O)N(c1c(F)cccc1F)S(=O)(=O)c1nc2nc(C)ccn2n1` reads 100%

The measured plant injury at 280.212 g/ha associated with `O=S(=O)(Nc1c(F)cccc1F)c1nc2ncccn2n1` reads 100%

The measured plant injury at 280.212 g/ha associated with `Cc1cc(C)n2nc(S(=O)(=O)Nc3c(C)cccc3Cl)nc2n1` reads 98%

The measured plant injury at 280.212 g/ha associated with `CC(=O)OCc1cccc(Cl)c1NS(=O)(=O)c1nc2nc(C)cc(C)n2n1` reads 100%
